- Target or test system: Aβ 1-42 (Homo sapiens, UniProt P05067)
- Construct: The reaction solutions contained Aβ 1-42 at concentrations
- Sequence (P05067 672-713 limits assumed): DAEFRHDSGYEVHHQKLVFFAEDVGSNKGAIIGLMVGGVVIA
- Measurement description: Fluorometric H2O2 assay (inhibition of Abeta H2O2 production)
- Assay type: biochemical
- Condition info: concentration required to inhibit 50% of Abeta H2O2 production; read-out: H2O2 IC50
- Description: Assay 1. Fluorometric H2O2 Assay A fluorometric assay was used to test the ability of a test compound to inhibit hydrogen peroxide generation by Aβ in the presence of copper based on dichlorofluoroscein diacetate (DCF; Molecular Probes, Eugene Oreg.). […] H2O2 concentration may be established by comparing fluorescence with the H2O2 standards, Inhibition of Aβ H2O2 production was assayed by including a given concentration of test compound(s) in the test wells.
pIC50: −log10 of the molar value.
Metric name: pIC50

CCN(CC)Cc1ccc2c(Cl)cc(Cl)c(O)c2n1.Cl 6.40
CCc1cnc2c(O)cccn2c1=O 6.40
CCn1cnc2c(O)c(I)ccc2c1=S 6.40
